# System: C. xerosis ATCC 373
# Assay remarks: BCT test (bacterial contact time), 120 s, log reduction / effect fraction; CI by Compusyn
# Format: cell-based
# Run parameters: Corynebacterium xerosis, ATCC373, 2 min, dose 0.3% w/v; contact 120 s; 25% EtOH; read-out: Log reduction
Measure name: log reduction at 0.3 % strength
Answer with a bare number; do not write a unit.

// known answers, use as guide
Molecule	log reduction at 0.3 % strength
CCC(C)(O)CCCC(C)C (stereo not shown)	6.5
CCCCCCC1CCC(=O)O1 (stereo not shown)	6.1
CC1=CCC(C(C)(C)O)CC1 (stereo not shown)	3.9
C=CCc1ccc(O)c(OC)c1	2.7
C=C(C)[C@@H]1CC=C(CO)CC1	6.4
CC(CCO)CCc1ccccc1 (stereo not shown)	5.9

// next entry
Enquiry: Which log reduction at 0.3 % strength reading was recorded for the molecule C/C=C/c1ccc(O)c(OC)c1 ?
Return: 3.4
